# TGI per record follows
Tested on: MDA-N
Assay: NCI tumour cell line growth inhibition, 48 h
// units = µM; emit number, no label

# compound, TGI, µM
data = [
    ("COC(=O)N/N=C(/CC1(O)C(=O)Nc2ccc([N+](=O)[O-])cc21)c1ccccc1 (stereo not drawn)", 94.4),
]

### Prompt For the compound CCOc1ccccc1/C=C(/C#N)C(N)=O , give its reported TGI.
### Response 45.7

---

# key: entry, value: TGI
Tested on: HL-60(TB) leukemia
Experiment: NCI tumour cell line growth inhibition, 48 h

# molecule, targetOrTestSystem, TGI
measured = [
    ("C[Si](C)(C)CNC(=O)OCc1ccccc1", "HL-60(TB) leukemia", "> 100 µM"),
    ("O=c1c(-c2ccccc2)c(SCCN2CCCC2)n(-c2ccccc2)c(=S)n1-c1ccccc1", "HL-60(TB) leukemia", "> 100 µM"),
    ("O=c1[nH]c2cc([N+](=O)[O-])ccc2nc1/C(=N/Nc1ccccc1)C(O)c1ccc(Cl)cc1Cl (stereo not drawn)", "HL-60(TB) leukemia", "> 100 µM"),
    ("NCCCNC(=O)c1csc(NC(=O)c2csc(NC(=O)CCCN)n2)n1", "HL-60(TB) leukemia", "> 100 µM"),
    ("Oc1ccc(OCCOc2ccc(O)cc2)cc1", "HL-60(TB) leukemia", "> 100 µM"),
]

Moving on to the next molecule.
### Prompt Provide only the value of recorded TGI for O=c1cn[nH]c2nc3ccccc3n12
### Response > 100 µM

---

This section presents compounds with their documented TGI values.
Test system: SNB-75 CNS
Assay: NCI tumour cell line growth inhibition, 48 h

# compound, targetOrTestSystem, TGI
rows = [
    ("CCOC(=O)NC(NCC(O)c1ccccc1)(C(F)(F)F)C(F)(F)F (stereo not given)", "SNB-75 CNS", "> 100 µM"),
    ("CC(=O)N(C)C(C(=O)N1CC(C)CC1C(=O)N(C)C1C(=O)NC(CC(C)C)C(=O)N2CC(C)CC2C(=O)NC(CC(C)C)C(=O)N(C)C(C(C)C)C(=O)N2CCCC2C(=O)N(C)C(CC(C)C)C(=O)NCC(=O)OC1C)C(C)C (stereo not given)", "SNB-75 CNS", "> 100 µM"),
    ("CNc1ccccc1S(=O)(=O)c1ccccc1[N+](=O)[O-]", "SNB-75 CNS", "> 100 µM"),
    ("O=C1NC(=O)/C(=C/c2ccc3ncccc3c2)S1", "SNB-75 CNS", "> 25 µM"),
]

### Prompt Assign TGI to the following record: Oc1ccc(OCCOc2ccc(O)cc2)cc1
### Response > 100 µM

---

System: UACC-257 melanoma
Assay: NCI tumour cell line growth inhibition, 48 h; in the data active = GI50 below about 0.43 µM; inactive = the rest
Mark one answer only. Choices: True (active), False (inactive)

### Prompt // param item: O=C(c1ccc(Oc2ccccc2)cc1Cl)c1c[nH]c2ncnc(N[C@@H]3CC[C@@H](CO)OC3)c12 ; yields the recorded call
### Response True

### Prompt Status in this test for CO[C@H]1/C=C/[C@@](C)(O)/C=C/C(=O)O[C@H](C)[C@@H](C)CC/C=C/1C ?
### Response False

### Prompt Just curious, what result did O=C1C(=O)/C(=C/c2ccccc2)CCCCCC/C1=C/c1ccccc1 get here?
### Response False

---

Tested on: T-47D breast
Test: NCI tumour cell line growth inhibition, 48 h
measurementName: TGI

Reference set (3 entries):
# molecule, TGI
data = [
    ("COc1cc(/C=C/c2cc(/C=C/c3ccc(O)c(OC)c3)n(C(=O)Cc3ccccc3)n2)ccc1O", "5.17 µM"),
    ("NCCCNc1nc2ccccc2c2c(=O)c3cccc(F)c3sc12", "3.74 µM"),
    ("C=CCOC1=C(OC(C)=O)C(=O)OC1C1COC(C)(C)O1 (centres undefined)", "> 63.7 µM"),
]

### Prompt Look up T-47D breast data: TGI of O=c1cn[nH]c2nc3ccccc3n12 , then report it.
### Response > 100 µM

### Prompt Please report TGI with T-47D breast for item CC(C#N)NCc1ccc(C(C)NC(C)C#N)cc1 (centres undefined) .
### Response > 100 µM

### Prompt State recorded TGI with T-47D breast, entry CN1C(=O)C(/C=N/NC(=O)c2cccnc2)C(N)N(C)C1=O (centres undefined) , no comment.
### Response > 100 µM

### Prompt Please tell me the measured TGI for CC(C)(C)OC(=O)NCC(=O)NC1CC=CCC1NC(=O)CNC(=O)OC(C)(C)C (centres undefined) ; system: T-47D breast.
### Response > 100 µM

### Prompt Lab note: T-47D breast assay, enter TGI for CCCCCCCCCCCC(=O)N(CCCCCCCCCCC(=O)O)CC(O)C(O)C(OC1OC(CO)C(O)C(O)C1O)C(O)CO (centres undefined) here
### Response > 100 µM

### Prompt Tell me its TGI on T-47D breast: CCOC(=O)NC(NCC(O)c1ccccc1)(C(F)(F)F)C(F)(F)F (centres undefined)
### Response > 100 µM

---

Tested on: HOP-92 NSCLC
Assay: NCI tumour cell line growth inhibition, 48 h
We begin with a simple list: items and their reported TGI.

See these solved cases before continuing.
# compound, TGI
rows = [
    ("O=C1C(Cl)=C(Cl)C(Cl)(Cl)C(Cl)C1(Cl)Cl (stereo not drawn)", "59.8 µM"),
    ("COc1ccc(Cc2c(N)[nH]c(=O)[nH]c2=O)cc1", "> 100 µM"),
    ("NC(C/C=C/P(=O)(O)O)C(=O)O (stereo not drawn)", "> 100 µM"),
    ("COc1ccc(P2(=S)OCCOP(=S)(c3ccc(OC)cc3)S2)cc1 (stereo not drawn)", "> 100 µM"),
    ("O=C1NC(=O)/C(=C/c2ccc3ncccc3c2)S1", "> 22.8 µM"),
    ("Cc1ccc(N(CC(=O)Nc2ccc(S(=O)(=O)NC3CCN(C)CC3)cc2)S(=O)(=O)c2ccc(Cl)cc2)cc1", "8.64 µM"),
]

### Prompt Quote TGI with test system HOP-92 NSCLC for N#CC1(C#N)C(c2ccc(C3C(C#N)(C#N)C3(C#N)C#N)cc2)C1(C#N)C#N
### Response > 100 µM

### Prompt Answer with TGI of COc1cc2c(c(OC)c1OC)CCNC2C1=C(O)COC1=O (stereo not drawn) measured for HOP-92 NSCLC.
### Response > 100 µM

### Prompt Lab note: HOP-92 NSCLC assay, enter TGI for O=C1c2cccc3cc4ccccc4c(c23)C(=O)N1CCNCCN1C(=O)c2cccc3cc4ccccc4c(c23)C1=O here
### Response 1.75 µM

### Prompt Give TGI for O=C1c2ccc3c4ccc5c6c(ccc(c7ccc(c2c37)C(=O)N1CCN1CCCCC1)c64)C(=O)N(CCN1CCCCC1)C5=O tested on HOP-92 NSCLC.
### Response > 100 µM

### Prompt Report value only: TGI, HOP-92 NSCLC, CC1(C)C(=NNC(=S)NN)C(C)(C)C1=NNC(=S)NN
### Response > 100 µM

### Prompt Give TGI only, for COc1ccc2nccc(/C=C/c3ccc(N(C)C)cc3)c2c1 , using HOP-92 NSCLC data.
### Response > 10 µM

### Prompt Tell me TGI of CCOC(=O)NC(NCC(O)c1ccccc1)(C(F)(F)F)C(F)(F)F (stereo not drawn) when tested on HOP-92 NSCLC.
### Response > 100 µM

---

Recorded TGI, one value per entry.
System: HCT-116 colon
Test: NCI tumour cell line growth inhibition, 48 h

Worked set:
# smilesCode, TGI
rows = [
    ("CC(=O)c1ccc(Nc2cc(-n3nnc4ccccc43)nc3ccccc23)cc1", "> 100 µM"),
    ("CCOC(=O)C1CSCCSC1", "> 100 µM"),
]

The record that follows has no TGI shown yet.
### Prompt Read off the recorded TGI for COc1ccc(Cc2nccc3cc(OC)c(OC)cc23)cc1
### Response > 100 µM

---

Test system: M14 melanoma
Assay: NCI tumour cell line growth inhibition, 48 h
measurementName: TGI

# molecule, TGI
records = [
    ("CC(C)NC(=O)OCc1c(COC(=O)NC(C)C)c(-c2cc[n+](COC(=O)CC(C)(C)C)cc2)n2c1CCC2", "> 100 µM"),
    ("COC(=O)N/N=C(/CC1(O)C(=O)Nc2ccc([N+](=O)[O-])cc21)c1ccccc1 (stereo not given)", "> 64.8 µM"),
    ("CO[C@H]1/C=C/[C@@](C)(O)/C=C/C(=O)O[C@H](C)[C@@H](C)CC/C=C/1C", "43.3 µM"),
]

Now consider a different molecule.
### Prompt Supply reported TGI belonging to this molecule: COc1ccc2nccc(/C=C/c3ccc(N(C)C)cc3)c2c1
### Response > 10 µM

Provenance of the data: PubChem BioAssay (NCI)
